# target entity: human D3 receptor (Homo sapiens (Human), UniProt P35462)
# Sequence (P35462 whole entry): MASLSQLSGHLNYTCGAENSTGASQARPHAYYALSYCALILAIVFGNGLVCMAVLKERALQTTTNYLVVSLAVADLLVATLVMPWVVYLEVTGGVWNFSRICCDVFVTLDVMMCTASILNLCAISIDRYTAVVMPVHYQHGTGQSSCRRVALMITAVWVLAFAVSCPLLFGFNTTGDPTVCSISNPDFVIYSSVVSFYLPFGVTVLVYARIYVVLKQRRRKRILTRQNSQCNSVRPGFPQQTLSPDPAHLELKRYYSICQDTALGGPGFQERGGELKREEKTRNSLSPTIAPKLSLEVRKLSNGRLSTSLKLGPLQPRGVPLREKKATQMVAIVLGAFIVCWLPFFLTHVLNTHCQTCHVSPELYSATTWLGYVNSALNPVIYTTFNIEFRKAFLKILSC
pKi: −log10 of the molar value.
Assign fulfilled whenever pKi does not fall below 8; assign not fulfilled whenever it does.

Enquiry: Tell me whether pKi is at least 8 here: CC(C)(C)C(=O)N[C@H]1CC[C@H](CCN2CCC(c3cccc4c3CCO4)CC2)CC1
Return: not fulfilled

Enquiry: Kindly determine if pKi recorded for C/C=C/CC(=O)N[C@H]1CC[C@H](CCN2CCC(c3cccc4c3CCO4)CC2)CC1 is above or exactly 8.
Return: fulfilled

Enquiry: # check: pKi of CC(C)(C)Oc1ccc(C(=O)N[C@H]2CC[C@H](CCN3CCC(c4cccc5c4CCO5)CC3)CC2)cc1 is greater than or equal to 8
Return: not fulfilled

Next:
Enquiry: Is it the case that O=C(CC1CCOCC1)N[C@H]1CC[C@H](CCN2CCC(c3ccc(F)c4occc34)CC2)CC1 has pKi reaching or exceeding 8?
Return: not fulfilled

----------
// endpoint pKi / system human D3 receptor (Homo sapiens (Human))
pKi is a log-scale quantity: -log10 of the concentration expressed in molar.

Record O=C(CC1CC1)N[C@H]1CC[C@H](CCN2CCC(c3cccc4c3CCO4)CC2)CC1 ; system human D3 receptor (Homo sapiens (Human)); pKi = 8.54

More entries:
Entry COCCC(=O)N[C@H]1CC[C@H](CCN2CCC(c3cccc4c3CCO4)CC2)CC1 : pKi on human D3 receptor (Homo sapiens (Human)) = 8.18

GET /values?item= O=C(C[C@@H](O)C(F)(F)F)N[C@H]1CC[C@H](CCN2CCC(c3cccc4c3CCO4)CC2)CC1 &system= human D3 receptor (Homo sapiens (Human)) returns pKi: 8.19

Assay human D3 receptor (Homo sapiens (Human)), sample CN1CCN(c2ccc(C(=O)N[C@H]3CC[C@H](CCN4CCC(c5cccc6c5CCO6)CC4)CC3)cc2)CC1 , pKi read: 8.22

Per the reported human D3 receptor (Homo sapiens (Human)) data, O=C(N[C@H]1CC[C@H](CCN2CCC(c3cccc4c3CCO4)CC2)CC1)c1ccc(F)cc1 has pKi of 8.31

// assay human D3 receptor (Homo sapiens (Human)), entry CCCCC(=O)N[C@H]1CC[C@H](CCN2CCC(c3cccc4c3CCO4)CC2)CC1 , pKi value = 8.34

Lab note: molecule O=S(=O)(N[C@H]1CC[C@H](CCN2CCC(c3cccc4c3CCO4)CC2)CC1)c1ccccc1 tested on human D3 receptor (Homo sapiens (Human)); recorded pKi was 8.29

Item O=C(N[C@H]1CC[C@H](CCN2CCC(c3cccc4c3CCO4)CC2)CC1)C1CC1(F)F (stereo partly shown) ; assay system human D3 receptor (Homo sapiens (Human)); pKi reported as 8.02

----------
Could you label it fulfilled if measured melting point is 200 °C or higher, and not fulfilled otherwise?

Solved cases (3 shown):
Enquiry: Does the reported melting point for O=C(CC1COCCO1)N[C@H]1CC[C@H](CCN2CCC(c3cccc4occc34)CC2)CC1 (mixture of isomers) [Example 12] fall at or above the 200 °C mark?
Return: not fulfilled

Enquiry: I'd appreciate it if you could say whether O=C(CC1CC1)N[C@H]1CC[C@H](CCN2CCC(c3cccc4c3CCO4)CC2)CC1 [Example 30] has melting point at least equal to 200 °C.
Return: not fulfilled

Enquiry: Given the entry O=C(Cc1noc2ccccc12)N[C@H]1CC[C@H](CCN2CCC(c3cccc4c3CCO4)CC2)CC1 [Example 93] , answer whether its melting point meets or surpasses 200 °C.
Return: fulfilled

More entries:
Enquiry: Please check the record O=C(N[C@H]1CC[C@H](CCN2CCC(c3cccc4c3CCO4)CC2)CC1)c1ccc(-c2cccnc2)cc1 [Example 92] and state if its melting point is at or above 200 °C.
Return: fulfilled

Enquiry: Is it the case that O=C(C[C@@H]1COCCO1)N[C@H]1CC[C@H](CCN2CCC(c3cccc4c3CCO4)CC2)CC1 [Example 21] has melting point reaching or exceeding 200 °C?
Return: not fulfilled

Enquiry: hey, is melting point for this one >= 200 °C? O=C(CC1CCCO1)N[C@H]1CC[C@H](CCN2CCC(c3cccc4c3CCO4)CC2)CC1 (mixture of isomers) [Example 25]
Return: not fulfilled

Enquiry: Is melting point for COC(CC(=O)N[C@H]1CC[C@H](CCN2CCC(c3cccc4c3CCO4)CC2)CC1)OC [Example 82] at or above 200 °C?
Return: fulfilled

----------
Ki overview
# target entity: human D2 receptor (Homo sapiens (Human), UniProt P14416)
# Sequence (P14416 whole entry): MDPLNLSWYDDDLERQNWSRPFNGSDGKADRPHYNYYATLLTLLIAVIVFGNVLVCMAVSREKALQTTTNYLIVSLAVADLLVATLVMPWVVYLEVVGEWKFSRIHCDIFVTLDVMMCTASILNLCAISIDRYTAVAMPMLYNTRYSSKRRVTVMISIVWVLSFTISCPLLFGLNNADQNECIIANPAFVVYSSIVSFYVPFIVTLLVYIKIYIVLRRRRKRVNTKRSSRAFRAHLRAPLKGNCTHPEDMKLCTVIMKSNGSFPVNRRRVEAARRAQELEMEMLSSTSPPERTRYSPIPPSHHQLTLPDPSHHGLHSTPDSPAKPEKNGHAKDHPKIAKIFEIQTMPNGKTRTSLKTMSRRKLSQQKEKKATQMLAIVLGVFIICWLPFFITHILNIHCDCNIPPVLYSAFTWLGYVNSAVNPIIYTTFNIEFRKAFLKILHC
# test protocol: Radioligand binding ([3H]-spiperone) to cloned receptors expressed in HEK-293 EBNA cells
# test conditions: HEK293 EBNA cell membranes expressing human D2
# Experimental: HEK293 EBNA cells were transiently transfected with expression plasmids encoding for the human D2 or D3 or for the human 5-HT2A receptor, respectively. […] The protein content of this homogenate was determined with the Bio-Rad (Bradford) Protein Assay (Biorad Laboratories GmbH, München, Germany) according to the instructions of the manufacturer using gamma globulin as the standard. […] The binding affinity (Ki) of the compounds was determined using radioligand binding. […]
Provide only the numeric value, understood in nM.

Ki reading for CCCCC(=O)N[C@H]1CC[C@H](CCN2CCC(c3cccc4c3CCO4)CC2)CC1 : 411

More entries:
Entry under test: O=C(N[C@H]1CC[C@H](CCN2CCC(c3cccc4c3CCO4)CC2)CC1)c1ccc(N2CCS(=O)(=O)CC2)cc1 . Its Ki was 329

O=C(N[C@H]1CC[C@H](CCN2CCC(c3cccc4c3CCO4)CC2)CC1)C1(O)CC1 yielded Ki of 299

Lab book: Ki of O=C(CCO)N[C@H]1CC[C@H](CCN2CCC(c3cccc4c3CCO4)CC2)CC1 noted as 344

----------
Assay read-out pKi; system under study: human D3 receptor (Homo sapiens (Human), UniProt P35462).
Remember the convention: pKi equals -log10 of concentration in molar.

As a guide, the following entries are already answered.
The observed pKi for CS(=O)(=O)N[C@H]1CC[C@H](CCN2CCC(c3cccc4c3CCO4)CC2)CC1 when tested with human D3 receptor (Homo sapiens (Human), UniProt P35462) stands at 8.00

// pKi (human D3 receptor (Homo sapiens (Human), UniProt P35462)) for Cc1cc(CC(=O)N[C@H]2CC[C@H](CCN3CCC(c4cccc5c4CCO5)CC3)CC2)on1 = 8.70

Others:
The value of pKi recorded for O=C(N[C@H]1CC[C@H](CCN2CCC(c3cccc4c3CCO4)CC2)CC1)c1ccc(-c2cccnc2)cc1 when tested on human D3 receptor (Homo sapiens (Human), UniProt P35462) reads 8.27

----------
measured parameter: melting point (°C)
Dear colleague, please return just the value in °C, with no unit written.

Form: compound = CC(C)CCC(=O)N[C@H]1CC[C@H](CCN2CCC(c3cccc4c3CCO4)CC2)CC1 [Example 75] ; melting point = 188

The reported melting point of the compound CS(=O)(=O)CC(=O)N[C@H]1CC[C@H](CCN2CCC(c3cccc4occc34)CC2)CC1 [Example 11] was 201

Entry CC(C)(O)C(=O)N[C@H]1CC[C@H](CCN2CCC(c3cccc4c3CCO4)CC2)CC1 [Example 38] ; melting point = 163

Given item O=C(N[C@H]1CC[C@H](CCN2CCC(c3cccc4c3CCO4)CC2)CC1)C(O)C(F)(F)F (mixture of isomers) [Example 37] , the value recorded as its melting point is 179

For reference, reported melting point for O=C(N[C@H]1CC[C@H](CCN2CCC(c3cccc4c3CCO4)CC2)CC1)c1ccc(N2CCS(=O)(=O)CC2)cc1 [Example 77] stands at 282

***
Lab note: O=C(N[C@H]1CC[C@H](CCN2CCC(c3ccc(F)c4occc34)CC2)CC1)C1CCOCC1 [Example 65] gave melting point of 208

The recorded melting point for entry CC(=O)N[C@H]1CC[C@H](CCN2CCC(c3ccc(F)c4occc34)CC2)CC1 [Example 64] equals 203.5

The reported value for O=C(CC1CCOCC1)N[C@H]1CC[C@H](CCN2CCC(c3cccc4c3CCO4)CC2)CC1 [Example 8] in terms of melting point is 191

O=CN[C@H]1CC[C@H](CCN2CCC(c3cccc4c3CCO4)CC2)CC1 [Example 87] yielded melting point of 142

Short answer for O=C(N[C@H]1CC[C@H](CCN2CCC(c3cccc4c3CCO4)CC2)CC1)c1ccc(Cl)cc1Cl [Example 89] : melting point was 188

Record O=C(CC(F)(F)F)N[C@H]1CC[C@H](CCN2CCC(c3cccc4c3CCO4)CC2)CC1 [Example 18] . Reported melting point: 197

Sure, the documented melting point for COCCC(=O)N[C@H]1CC[C@H](CCN2CCC(c3ccc(F)c4occc34)CC2)CC1 [Example 67] is 177

melting point reading for O=C(N[C@H]1CC[C@H](CCN2CCC(c3cccc4c3CCO4)CC2)CC1)c1ccc(N2CCCCC2)cc1 [Example 56] : 248

The compound O=C(N[C@H]1CC[C@H](CCN2CCC(c3cccc4c3CCO4)CC2)CC1)C1CCOC1 (mixture of isomers) [Example 52] showed melting point equal to 211

Value of melting point reported for the compound CC(C)CC(=O)N[C@H]1CC[C@H](CCN2CCC(c3cccc4c3CCO4)CC2)CC1 [Example 24] is 197

Data point: O=C(Cc1ccc2c(c1)OCO2)N[C@H]1CC[C@H](CCN2CCC(c3cccc4c3CCO4)CC2)CC1 [Example 94] ; melting point = 209
